molecular target: HIV-1 Env of pseudovirus isolate MGRM-G-001 (subtype G) (HIV-1); test: cell-based or functional assay
experimental readout: IC50 (µg/mL)
API: value field is a number in µg/mL; no unit string.

Q) // returns reported IC50 for input PGT-135 (antibody, V domains shown) VH: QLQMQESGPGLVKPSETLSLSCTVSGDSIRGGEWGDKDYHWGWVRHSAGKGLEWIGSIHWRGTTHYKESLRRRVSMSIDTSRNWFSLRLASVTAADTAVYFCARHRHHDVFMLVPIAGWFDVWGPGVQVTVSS VL: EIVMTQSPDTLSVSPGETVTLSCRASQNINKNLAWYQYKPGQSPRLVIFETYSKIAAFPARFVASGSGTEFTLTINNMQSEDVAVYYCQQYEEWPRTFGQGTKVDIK
A) 0.393
